system: Enterobacter aerogenes E19; test: MIC, agar dilution assay; format: cell-based; conditions: Klebsiella aerogenes, E19, 20 h, 35°C for 20 hours, read-out: Antibiotic Activity minimum inhibitory concentration
readoutName: MIC
Could you write the number and then its unit?

-- ask State its MIC on Enterobacter aerogenes E19: CCC1C(=O)N2C(C(=O)O)=C(Sc3ccccn3)CC12 (stereo not shown)
-- reply 25 µg/mL

-- ask Lab note: need MIC with Enterobacter aerogenes E19 for entry CC(C)C1C(=O)N2C(C(=O)O)=C(Sc3ccncc3)CC12 (stereo not shown) , please look it up.
-- reply 12.5 µg/mL

-- ask Hello, I am looking for reported MIC with Enterobacter aerogenes E19 for CCC1C(=O)N2C(C(=O)O)=C(Sc3ccncc3)CC12 (stereo not shown) . Could you help?
-- reply 7.4 µg/mL

-- ask Recorded MIC for CC(C)C1C(=O)N2C(C(=O)O)=C(Sc3ccccn3)CC12 (stereo not shown) with Enterobacter aerogenes E19, please?
-- reply 50 µg/mL

---

Would you kindly list MIC for each of these molecules?
system: Citrobacter freundii GN 346
Use µg/mL as the unit, but write only the number.

-- ask Which MIC is listed for CC(C)C1C(=O)N2C(C(=O)O)=C(Sc3ccncc3)CC12 (stereo not shown) [Table I-1 R1=-CH3] ?
-- reply 50

-- ask I am curious: what MIC value has been reported for CC(C)C1C(=O)N2C(C(=O)O)=C(Sc3ccccn3)CC12 (stereo not shown) [Table I-2 R1=-CH3] ?
-- reply 50

-- ask # lookup: MIC of CCC1C(=O)N2C(C(=O)O)=C(Sc3ccncc3)CC12 (stereo not shown) [Table I-1 R1=H]
-- reply 29.5

-- ask Look at this molecule and give its reported MIC. CCC1C(=O)N2C(C(=O)O)=C(Sc3ccccn3)CC12 (stereo not shown) [Table I-2 R1=H]
-- reply 25

---

What Inhibitory zone diameter was measured for each of the following?
test system: S. aureus; experiment: Disc diffusion assay in nutrient broth containing 10% horse serum; assay type: cell-based
Expressed in mm, but write only the number.

-- ask // lookup Inhibitory zone diameter | system=S. aureus | key= CC(O)C1C(=O)N2C(C(=O)OCc3ccc([N+](=O)[O-])cc3)=C(Br)CC12 (centres unmarked) [Table IV r8 R=OH X=Br M=[drawing]]
-- reply 31.2

-- ask Kindly state the measured Inhibitory zone diameter obtained for CCC1C(=O)N2C(C(=O)OC)=C(Br)CC12 (centres unmarked) with S. aureus.
-- reply 29.7

-- ask Recall the recorded Inhibitory zone diameter for CCC1C(=O)N2C(C(=O)OC)=C(I)CC12 (centres unmarked) with S. aureus and state it.
-- reply 29.6

-- ask Identify the measured Inhibitory zone diameter of CCC1C(=O)N2C(C(=O)OCc3ccccc3)=C(Br)CC12 (centres unmarked) [Table IV r5 R=H X=Br M=[drawing]] for S. aureus.
-- reply 30.2

-- ask Write down the reported Inhibitory zone diameter of CCC1C(=O)N2C(C(=O)OCc3ccc([N+](=O)[O-])cc3)=C(Br)CC12 (centres unmarked) [Table IV r6 R=H X=Br M=[drawing]] , test system: S. aureus.
-- reply 28.6

-- ask Under S. aureus: Inhibitory zone diameter value of COC(=O)C1=C(I)CC2C(C(C)O)C(=O)N12 (centres unmarked) ?
-- reply 31.0

-- ask Which Inhibitory zone diameter is reported with S. aureus for this entry: CCC1C(=O)N2C(C(=O)OCc3ccccc3)=C(I)CC12 (centres unmarked) [Table IV r10 R=H X=I M=[drawing]] ?
-- reply 30.0

-- ask Provide the documented Inhibitory zone diameter with S. aureus as the system for CC(C)C1C(=O)N2C(C(=O)OCc3ccc([N+](=O)[O-])cc3)=C(Br)CC12 (centres unmarked) [Table IV r7 R=CH3 X=Br M=[drawing]]
-- reply 26.8
